- measuredTarget: T1, canine NGF (canine, UniProt Q29074 110-229 (pig entry), limits assumed)
- T1 construct: The protein was secreted from CHO cells and purified; also called cNGF; canine β-NGF
- T1 chain: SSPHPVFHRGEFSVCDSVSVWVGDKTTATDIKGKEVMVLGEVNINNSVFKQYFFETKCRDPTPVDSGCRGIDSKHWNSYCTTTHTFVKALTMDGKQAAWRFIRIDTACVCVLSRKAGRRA
- protocolDescription: SPR (Biacore T200), 100 nM mAb on NGF chip, similarity to parent mAb
readoutLabel: Percent Similarity Score (KD on cN) (%)
Answers are plain numbers, in %.

Below, each entry is followed by its recorded Percent Similarity Score (KD on cN) result.
can48L2VH_T58A (antibody, V domains shown, CDR scanning mutant of ZTS-842 (48L2)) VH: EVQLVESGGDLVKPGGSLRLSCVASGFTFSTYGINWVRQAPGKGLQWVAYISSGGSSAYYADPVKGRFTISRDDAKNMLYLQMNSLRAEDTAIYYCAGSRYTYAYGGGYEFHFWGQGTLVTVSS VL: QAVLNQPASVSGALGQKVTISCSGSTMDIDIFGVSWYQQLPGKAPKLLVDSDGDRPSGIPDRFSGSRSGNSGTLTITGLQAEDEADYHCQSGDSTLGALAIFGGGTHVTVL
99.1
can9L12VH_S31A (antibody, V domains shown) VH: EVQLVESGGDLVKPGGSLRLSCVASGFTFSAHGMHWVRQSPGKGLQWVAVINSGGSSTYYTDAVKGRFTISRDNAKNTVYLQMNSLRAEDTAMYYCAKESVGGWEQLVGPHFDYWGQGTLVIVSS VL: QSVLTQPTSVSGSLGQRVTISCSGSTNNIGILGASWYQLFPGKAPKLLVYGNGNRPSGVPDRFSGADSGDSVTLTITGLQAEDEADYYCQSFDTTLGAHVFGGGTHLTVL
100
can48L2VL_D28A (antibody, V domains shown, CDR scanning mutant of ZTS-842 (48L2)) VH: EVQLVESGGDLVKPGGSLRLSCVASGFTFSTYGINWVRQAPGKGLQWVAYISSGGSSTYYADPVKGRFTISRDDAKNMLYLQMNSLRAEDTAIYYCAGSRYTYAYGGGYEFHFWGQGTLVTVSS VL: QAVLNQPASVSGALGQKVTISCSGSTMAIDIFGVSWYQQLPGKAPKLLVDSDGDRPSGIPDRFSGSRSGNSGTLTITGLQAEDEADYHCQSGDSTLGALAIFGGGTHVTVL
97
can9L12VH_G102A (antibody, V domains shown) VH: EVQLVESGGDLVKPGGSLRLSCVASGFTFSSHGMHWVRQSPGKGLQWVAVINSGGSSTYYTDAVKGRFTISRDNAKNTVYLQMNSLRAEDTAMYYCAKESVAGWEQLVGPHFDYWGQGTLVIVSS VL: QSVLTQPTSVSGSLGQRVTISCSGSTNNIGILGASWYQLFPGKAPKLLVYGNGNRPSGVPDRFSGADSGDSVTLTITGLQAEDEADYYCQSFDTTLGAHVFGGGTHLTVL
11
can9L12VH_E99A (antibody, V domains shown) VH: EVQLVESGGDLVKPGGSLRLSCVASGFTFSSHGMHWVRQSPGKGLQWVAVINSGGSSTYYTDAVKGRFTISRDNAKNTVYLQMNSLRAEDTAMYYCAKASVGGWEQLVGPHFDYWGQGTLVIVSS VL: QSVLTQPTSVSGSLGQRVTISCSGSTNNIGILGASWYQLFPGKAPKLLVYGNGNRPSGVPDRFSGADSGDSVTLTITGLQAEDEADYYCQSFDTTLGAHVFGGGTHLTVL
97.7

Answer for every listed entry: what is its Percent Similarity Score (KD on cN)? The entries follow.
1. can9L12VH_L107A (antibody, V domains shown) VH: EVQLVESGGDLVKPGGSLRLSCVASGFTFSSHGMHWVRQSPGKGLQWVAVINSGGSSTYYTDAVKGRFTISRDNAKNTVYLQMNSLRAEDTAMYYCAKESVGGWEQAVGPHFDYWGQGTLVIVSS VL: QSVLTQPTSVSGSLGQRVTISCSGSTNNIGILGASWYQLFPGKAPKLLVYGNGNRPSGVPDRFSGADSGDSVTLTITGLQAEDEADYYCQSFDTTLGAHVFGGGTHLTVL
2. can48L2VL_G97A (antibody, V domains shown, CDR scanning mutant of ZTS-842 (48L2)) VH: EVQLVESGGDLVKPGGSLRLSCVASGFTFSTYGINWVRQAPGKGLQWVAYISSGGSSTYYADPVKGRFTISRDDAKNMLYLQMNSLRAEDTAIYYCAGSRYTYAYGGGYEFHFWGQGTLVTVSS VL: QAVLNQPASVSGALGQKVTISCSGSTMDIDIFGVSWYQQLPGKAPKLLVDSDGDRPSGIPDRFSGSRSGNSGTLTITGLQAEDEADYHCQSGDSTLAALAIFGGGTHVTVL
3. can48L2VL_T95A (antibody, V domains shown, CDR scanning mutant of ZTS-842 (48L2)) VH: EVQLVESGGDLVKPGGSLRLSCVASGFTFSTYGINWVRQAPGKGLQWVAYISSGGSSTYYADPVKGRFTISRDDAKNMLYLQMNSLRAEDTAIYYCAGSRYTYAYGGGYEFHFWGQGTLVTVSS VL: QAVLNQPASVSGALGQKVTISCSGSTMDIDIFGVSWYQQLPGKAPKLLVDSDGDRPSGIPDRFSGSRSGNSGTLTITGLQAEDEADYHCQSGDSALGALAIFGGGTHVTVL
4. can9L12VH_G33A (antibody, V domains shown) VH: EVQLVESGGDLVKPGGSLRLSCVASGFTFSSHAMHWVRQSPGKGLQWVAVINSGGSSTYYTDAVKGRFTISRDNAKNTVYLQMNSLRAEDTAMYYCAKESVGGWEQLVGPHFDYWGQGTLVIVSS VL: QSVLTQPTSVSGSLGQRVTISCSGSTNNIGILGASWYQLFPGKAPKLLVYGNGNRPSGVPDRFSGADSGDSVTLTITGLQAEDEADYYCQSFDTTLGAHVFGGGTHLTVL

1. 5.45
2. 92.4
3. 94.9
4. 100

Percent Similarity Score (KD on cN) for can48L2VH_T31A (antibody, V domains shown, CDR scanning mutant of ZTS-842 (48L2)) VH: EVQLVESGGDLVKPGGSLRLSCVASGFTFSAYGINWVRQAPGKGLQWVAYISSGGSSTYYADPVKGRFTISRDDAKNMLYLQMNSLRAEDTAIYYCAGSRYTYAYGGGYEFHFWGQGTLVTVSS VL: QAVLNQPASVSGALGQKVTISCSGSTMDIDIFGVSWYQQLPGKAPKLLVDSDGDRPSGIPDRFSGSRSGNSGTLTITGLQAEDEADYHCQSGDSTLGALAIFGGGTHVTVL ? 99.6
